pIC50: −log10 of the molar value.
System: Tyrosine-protein kinase Fyn (Homo sapiens) | Read-out: pIC50 | Origin: multiple publications

| compound | systemUnderTest | pIC50 |
| --- | --- | --- |
| COc1cc(Nc2ncnc(N3c4ccccc4CCC3C)n2)cc(OC)c1OC (centres unmarked) | Tyrosine-protein kinase Fyn (Homo sapiens) | 5.23 to 6.01 |
| COc1ccc(Nc2ncnc(Nc3cccc(C)c3)n2)cc1OC | Tyrosine-protein kinase Fyn (Homo sapiens) | 5.15 to 5.93 |
| COc1cc(Nc2ncnc(Nc3ccc(C)c(N)c3)n2)cc(OC)c1OC | Tyrosine-protein kinase Fyn (Homo sapiens) | > 5.98 |
| COc1ccc(Nc2ncnc(N(CC(=O)O)c3ccc4c(c3)OCO4)n2)cc1OC | Tyrosine-protein kinase Fyn (Homo sapiens) | < 4.98 |
| CC(=O)NS(=O)(=O)c1ccc(Nc2ncnc(-n3c(N)nc4ccccc43)n2)cc1 | Tyrosine-protein kinase Fyn (Homo sapiens) | 5.25 to 6.03 |
| COc1cc(Nc2ncnc(-n3c(NCc4cccnc4)nc4ccccc43)n2)cc(OC)c1OC | Tyrosine-protein kinase Fyn (Homo sapiens) | 5.03 to 5.14 |
| COc1cc(Nc2ncnc(-n3c(NCc4ccc(Cl)cc4)nc4ccccc43)n2)cc(OC)c1OC | Tyrosine-protein kinase Fyn (Homo sapiens) | < 5.06 |
| COc1cc(Nc2ncnc(-n3c(NCc4ccccc4C)nc4ccccc43)n2)cc(OC)c1OC | Tyrosine-protein kinase Fyn (Homo sapiens) | < 5.04 |
| COc1cc(OC2CCN(C)CC2(F)F)c2c(Nc3cc(OC)c(Cl)cc3F)ncnc2c1 (racemic) | Tyrosine-protein kinase Fyn (Homo sapiens) | > 7.00 |
| Nc1nc2ccccc2n1-c1ncnc(Nc2ccc(N3CCOCC3)cc2)n1 | Tyrosine-protein kinase Fyn (Homo sapiens) | < 4.94 |
| CN1CCC(c2ccc(C(=O)Nc3n[nH]c4nc(Nc5c(F)ccc6c5OCO6)ccc34)cc2)CC1 | Tyrosine-protein kinase Fyn (Homo sapiens) | 6.08 |
| Cc1nc(C#N)cc(Nc2cc(CCc3cc(NC(=O)N4CCC5(CCCC5)CC4)ccc3C)n[nH]2)n1 | Tyrosine-protein kinase Fyn (Homo sapiens) | 8.70 |
| Cc1ccc(NC(=O)c2cccc(S(C)(=O)=O)c2)cc1CCc1cnc(Nc2cnccn2)s1 | Tyrosine-protein kinase Fyn (Homo sapiens) | 7.57 |
| COc1cc(Nc2ncnc(-n3c(=O)[nH]c4ccccc43)n2)cc(OC)c1OCCN1CCOCC1 | Tyrosine-protein kinase Fyn (Homo sapiens) | 5.31 to 6.09 |
| COc1cc(Nc2ncnc(-n3c(Cl)nc4ccccc43)n2)cc(OC)c1OC | Tyrosine-protein kinase Fyn (Homo sapiens) | 5.07 to 5.24 |
| COCCOc1ccc(Nc2ncnc(-n3c(N)nc4ccccc43)n2)cc1OC | Tyrosine-protein kinase Fyn (Homo sapiens) | < 4.96 |
| COCCOc1ccc(Nc2ncnc(Nc3ccc(C)c(O)c3)n2)cc1OCCOC | Tyrosine-protein kinase Fyn (Homo sapiens) | 5.26 to 6.04 |
